For each entry below, report its MIC value.
System: Staphylococcus aureus
Experiment: Antibacterial activity against methicillin-resistant Staphylococcus aureus
Format: functional
One number for each entry, in µg/mL.

Example entries and their recorded answers appear below.
item.smiles | subject.of.test | MIC, µg/mL
COc1c(-c2ccc3c(c2)CNC3)ccc2c(=O)c3c(=O)[nH]sc3n(C3CC3)c12 | Staphylococcus aureus | 2
COc1c(-c2ccc3cnccc3c2)ccc2c(=O)c3c(=O)[nH]sc3n(C3CC3)c12 | Staphylococcus aureus | 0.12
Cc1cc(-c2nc3c(cc2F)c(=O)c2c(=O)[nH]sc2n3C2CC2)ccn1 | Staphylococcus aureus | 8
COc1c(-c2ccnc(C)c2)ccc2c(=O)c3c(=O)[nH]sc3n(C3CC3)c12 | Staphylococcus aureus | 1

Shifting focus to the molecule that follows.
# value lookup — system Staphylococcus aureus, readout MIC, item O=c1[nH]sc2c1c(=O)c1cc(F)c(-c3ccncc3)nc1n2C1CC1
2
